- experimental-protocol: chemical genetic growth profiling, strain panel (AID 1159580);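 also: tested at 20 µM; growth read once vehicle control cultures reached saturation at 30 °C; 1 = growth at the plate median or of vehicle wells; lower values mean less growth of the strain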
- experimental-context: S. cerevisiae deletion strains, growth OD, locus YOR290C, strain snf2, active compounds read low
About 2,000 (36%) of roughly 5,500 compounds were called active. Roughly 18% stayed inconclusive and do not appear here. The list shows a part of the results.
Below, each entry is listed with its recorded normalized growth.
result-type: normalized growth

Cc1ncc([N+](=O)[O-])n1CCO	0.91
C[C@]12CCC3C(CC[C@H]4CC(=O)CC[C@]34C)C1CCC2=O (stereo partly specified)	0.932
OC[C@@H](O)C(O[C@@H]1O[C@H](CO)[C@H](O)[C@H](O)[C@H]1O)[C@H](O)[C@@H](O)CO (stereo partly specified)	0.998
COc1cc(O)c(C(=O)O)c(O)c1	1.01
O=C(O)c1cccc(O)c1O	1.03
CCOc1ccc(Cc2nccc3cc(OCC)c(OCC)cc23)cc1OCC	0.974

---

- experimental-protocol: chemical genetic growth profiling, strain panel (AID 1159580);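 also: tested at 20 µM; growth read once vehicle control cultures reached saturation at 30 °C; 1 = growth at the plate median or of vehicle wells; lower values mean less growth of the strain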
- experimental-context: S. cerevisiae deletion strains, growth OD, locus YPR163C, strain tif3, active compounds read low
Out of some 5,500 compounds screened, about 2,000 (36%) were called active. Not shown: some 18% with an inconclusive outcome. Some of the results follow.
# if measured normalized growth < 1: true  # else: false

CCCC(=O)Nc1ncnc2c1ncn2C1O[C@@H]2COP(=O)(O)O[C@H]2[C@H]1OC(=O)CCC (some centres not stated)	false
CCOc1ccc(Cc2nccc3cc(OCC)c(OCC)cc23)cc1OCC	true
Fc1ccc(C(c2ccc(F)cc2)N2CCN(C/C=C/c3ccccc3)CC2)cc1	true
CC1=C2CCC3C(CC[C@]4(C)C(=O)CCC34)[C@@]2(C)CCC1=O (some centres not stated)	true
CC(=O)N[C@@H](CC(=O)O)C(=O)O	false
CCCCC/C=C\C/C=C\C/C=C\C/C=C\CCCC(=O)O	true
C[C@]12CCC3C(CC[C@H]4C[C@@H](O)CC[C@]34C)C1CCC2=O (some centres not stated)	true
Nc1ncnc2c1ncn2[C@@H]1O[C@H](CO)[C@@H](O)[C@@H]1O	false

---

The following compounds are shown together with reported normalized growth values.
- experimental-protocol: chemical genetic growth profiling, strain panel (AID 1159580);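 also: tested at 20 µM; growth read once vehicle control cultures reached saturation at 30 °C; 1 = growth at the plate median or of vehicle wells; lower values mean less growth of the strain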
- experimental-context: S. cerevisiae deletion strains, growth OD, locus YCR088W, strain abp1, active compounds read low
Hit rate of the full screen: of about 5,500 compounds, about 2,000 (36%) were called active. Inconclusive results (about 18%) are left out. The list shows a part of the results.
result-type: normalized growth

Cn1nnnc1SCC1=C(C(=O)O)N2C(=O)C(NC(=O)C(OC=O)c3ccccc3)C2SC1 (configuration not stated)	0.998
COc1cc(O)c(C(C)=O)c(OC)c1	0.993
O=c1c(-c2ccc3c(c2)OCO3)coc2cc(O)ccc12	0.998
CC(C)CCCC(C)[C@H]1CCC2C3CC[C@H]4CC(=O)CC[C@]4(C)C3CC[C@@]21C (some centres not stated)	0.982
CC1=C(C(=O)O)N2C(=O)[C@@H](NC(=O)[C@H](N)C3=CCC=CC3)C2SC1 (some centres not stated)	1.02
COc1cc(O)c(C)c(O)c1	1.01
COc1ccc2c(=O)c(-c3cc4c(cc3OC)OCO4)coc2c1	1.01
CN1CCN(CCCN2c3ccccc3Sc3ccc(Cl)cc32)CC1	0.831
CC(=O)c1ccc2c(c1)N(CCCN(C)C)c1ccccc1S2	0.978
C[C@H]1C(=O)O[C@@H]2CCN3CC=C(COC(=O)[C@](C)(O)[C@]1(C)O)[C@H]23	0.992
COc1cc(OC)c2c(=O)c(-c3ccc4c(c3)OCO4)coc2c1	0.979
OCCN1CCN(CCCN2c3ccccc3Sc3ccc(Cl)cc32)CC1	1.01
Cc1ncc([N+](=O)[O-])n1CCO	0.974
Cc1nccc2c1[nH]c1ccccc12	0.977
CC(=O)O[C@@H]1CC2C(C)(C)[C@H](O)C[C@H](O)[C@]2(C)C2CC[C@@]3(C)C(=CC(=O)O[C@H]3c3ccoc3)[C@@]21C (some centres not stated)	0.992
COC(=O)C1=CO[C@@H](O[C@@H]2O[C@H](CO)[C@@H](O)[C@H](O)[C@H]2O)[C@@H]2[C@@H](C)[C@@H](O)C[C@H]12	0.998
COc1cc2c(cc1-c1coc3c4c(c(OC)cc3c1=O)OC(C)(C)C=C4)OCO2	1.05

Sourced from PubChem BioAssay AID1159580
